Measured values drawn from patent US11958865B1 for this set.

experiment: Rat brain disposition after oral gavage; format: in vivo, male Sprague-Dawley rats; conditions: male, Sprague-Dawley, brain, oral 5 mg/kg, 0.5 h, mean ± stdev, n=3, read-out: Total brain concentration
experimental_readout: concentration at 0.5 h (ng/g)

{"smiles_input": "Cc1ncccc1-n1nc2c(c1C)Nc1ncc3c(Cl)nn(c3n1)CCCO2", "reported_result": 414}

###

molecular target: UniProt Q5S007; test: LRRK2 wild-type LanthaScreen TR-FRET kinase activity assay; format: biochemical; settings: 1 nM kinase, 1.3 mM ATP, n≥2 tests
Sequence (Q5S007 970-2527): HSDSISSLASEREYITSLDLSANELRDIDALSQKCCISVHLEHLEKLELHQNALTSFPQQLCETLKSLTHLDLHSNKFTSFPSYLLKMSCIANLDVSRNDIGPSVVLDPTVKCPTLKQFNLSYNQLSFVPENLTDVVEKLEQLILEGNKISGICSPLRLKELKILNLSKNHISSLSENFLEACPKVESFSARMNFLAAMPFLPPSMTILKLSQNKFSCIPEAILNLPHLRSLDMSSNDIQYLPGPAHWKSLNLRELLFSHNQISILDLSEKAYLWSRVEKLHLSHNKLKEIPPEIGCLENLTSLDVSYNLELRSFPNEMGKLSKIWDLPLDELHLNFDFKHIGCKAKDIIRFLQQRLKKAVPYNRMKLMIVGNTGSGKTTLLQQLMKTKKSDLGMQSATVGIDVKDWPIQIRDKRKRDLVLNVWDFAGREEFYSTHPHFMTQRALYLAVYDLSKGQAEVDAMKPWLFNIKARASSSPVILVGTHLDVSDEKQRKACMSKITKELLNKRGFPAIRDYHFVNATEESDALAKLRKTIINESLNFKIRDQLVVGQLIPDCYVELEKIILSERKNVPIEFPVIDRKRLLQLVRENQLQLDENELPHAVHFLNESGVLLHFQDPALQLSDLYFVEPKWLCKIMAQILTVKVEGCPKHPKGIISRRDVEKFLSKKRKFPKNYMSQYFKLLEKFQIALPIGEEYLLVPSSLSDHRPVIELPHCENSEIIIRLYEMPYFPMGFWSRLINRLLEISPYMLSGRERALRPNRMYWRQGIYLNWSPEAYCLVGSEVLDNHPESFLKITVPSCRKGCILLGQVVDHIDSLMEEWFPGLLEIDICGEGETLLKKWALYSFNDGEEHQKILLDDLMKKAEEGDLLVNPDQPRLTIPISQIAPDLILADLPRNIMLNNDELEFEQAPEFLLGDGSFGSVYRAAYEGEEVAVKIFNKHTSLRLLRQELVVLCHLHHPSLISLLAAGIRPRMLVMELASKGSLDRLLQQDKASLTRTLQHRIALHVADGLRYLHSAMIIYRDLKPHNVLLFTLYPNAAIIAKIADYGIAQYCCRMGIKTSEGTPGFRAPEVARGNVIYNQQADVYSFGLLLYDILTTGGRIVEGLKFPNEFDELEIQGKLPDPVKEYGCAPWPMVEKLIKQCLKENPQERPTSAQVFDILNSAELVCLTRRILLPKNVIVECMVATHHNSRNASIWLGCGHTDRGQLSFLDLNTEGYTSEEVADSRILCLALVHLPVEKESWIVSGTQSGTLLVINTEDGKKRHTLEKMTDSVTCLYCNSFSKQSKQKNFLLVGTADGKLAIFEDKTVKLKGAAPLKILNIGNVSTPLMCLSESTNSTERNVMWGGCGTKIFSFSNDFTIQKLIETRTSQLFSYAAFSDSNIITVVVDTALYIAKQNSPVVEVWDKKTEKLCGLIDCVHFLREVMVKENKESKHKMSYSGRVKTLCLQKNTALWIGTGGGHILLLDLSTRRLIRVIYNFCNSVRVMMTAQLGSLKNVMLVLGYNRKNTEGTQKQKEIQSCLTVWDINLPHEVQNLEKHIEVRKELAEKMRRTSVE

{"molecule": "Cc1c2c(nn1-c1cccnc1OC(F)F)OCCCn1nc(Cl)c3cnc(nc31)N2 [Example 19]", "target_entity": "UniProt Q5S007", "IC50 / nM": 1.1}
{"molecule": "COc1ncccc1-n1nc2c(c1C)Nc1ncc3c(Cl)nn(c3n1)CCCO2 [Example 1]", "target_entity": "UniProt Q5S007", "IC50 / nM": 1.1}
{"molecule": "COc1nnccc1-n1nc2c(c1C)Nc1ncc3c(Cl)nn(c3n1)CCCO2 [Example 21]", "target_entity": "UniProt Q5S007", "IC50 / nM": 0.94}
{"molecule": "Cc1c2c(nn1-c1cccnc1OC(F)(F)F)OCCCn1nc(Cl)c3cnc(nc31)N2 [Example 20]", "target_entity": "UniProt Q5S007", "IC50 / nM": 3.4}
{"molecule": "[2H]C([2H])([2H])c1c2c(nn1-c1cccnc1OC)OCCCn1nc(Cl)c3cnc(nc31)N2 [Example 28]", "target_entity": "UniProt Q5S007", "IC50 / nM": 0.76}
{"molecule": "Cc1c2c(nn1-c1cccnc1OCF)OCCCn1nc(Cl)c3cnc(nc31)N2 [Example 18]", "target_entity": "UniProt Q5S007", "IC50 / nM": 0.67}
{"molecule": "[2H]C([2H])([2H])Oc1ncccc1-n1nc2c(c1C)Nc1ncc3c(Cl)nn(c3n1)CCCO2 [Example 24]", "target_entity": "UniProt Q5S007", "IC50 / nM": 0.95}
{"molecule": "CCc1c2c(nn1-c1cccnc1C)OCCCn1nc(Cl)c3cnc(nc31)N2 [Example 8]", "target_entity": "UniProt Q5S007", "IC50 / nM": 35}
{"molecule": "Cc1nc(C)c(-n2nc3c(c2C)Nc2ncc4c(Cl)nn(c4n2)CCCO3)cc1F [Example 15]", "target_entity": "UniProt Q5S007", "IC50 / nM": 4}
{"molecule": "COc1nc(C)ncc1-n1nc2c(c1C)Nc1ncc3c(Cl)nn(c3n1)CCCO2 [Example 22]", "target_entity": "UniProt Q5S007", "IC50 / nM": 2.1}
{"molecule": "COc1nccc(C)c1-n1nc2c(c1C)Nc1ncc3c(Cl)nn(c3n1)CCCO2 [Example 7]", "target_entity": "UniProt Q5S007", "IC50 / nM": 6.9}
{"molecule": "CCOc1ncccc1-n1nc2c(c1C)Nc1ncc3c(Cl)nn(c3n1)CCCO2 [Example 2]", "target_entity": "UniProt Q5S007", "IC50 / nM": 0.98}
{"molecule": "CCc1c2c(nn1-c1cccnc1OC)OCCCn1nc(Cl)c3cnc(nc31)N2 [Example 5]", "target_entity": "UniProt Q5S007", "IC50 / nM": 4}
{"molecule": "Cc1c2c(nn1-c1cccnc1OC1CC1)OCCCn1nc(Cl)c3cnc(nc31)N2 [Example 16]", "target_entity": "UniProt Q5S007", "IC50 / nM": 2.1}
{"molecule": "Cc1c2c(nn1-c1cccnc1C(C)(F)F)OCCCn1nc(Cl)c3cnc(nc31)N2 [Example 14]", "target_entity": "UniProt Q5S007", "IC50 / nM": 14}
{"molecule": "COc1ncc(C)cc1-n1nc2c(c1C)Nc1ncc3c(Cl)nn(c3n1)CCCO2 [Example 12]", "target_entity": "UniProt Q5S007", "IC50 / nM": 0.4}
{"molecule": "COc1nc(C)ccc1-n1nc2c(c1C)Nc1ncc3c(Cl)nn(c3n1)CCCO2 [Example 13]", "target_entity": "UniProt Q5S007", "IC50 / nM": 0.57}
{"molecule": "CCc1ncccc1-n1nc2c(c1C)Nc1ncc3c(Cl)nn(c3n1)CCCO2 [Example 4]", "target_entity": "UniProt Q5S007", "IC50 / nM": 7}
{"molecule": "Cc1c2c(nn1-c1cccnc1C(F)(F)F)OCCCn1nc(Cl)c3cnc(nc31)N2 [Example 17]", "target_entity": "UniProt Q5S007", "IC50 / nM": 20}
